Source: ChEMBL document CHEMBL3351699

Below is a list of entries, each paired with its recorded MIC80 value.
Tested on: Mycobacterium tuberculosis
Test method notes: Antimicrobial activity against clinical isolate Mycobacterium tuberculosis Harlingen assessed as growth inhibition after 7 days by turbidometry
Type: functional
Condition set: 168 h
Give your result as the value with the unit written after it.

Record smiles	MIC80
CCCc1cc(-c2nc(-c3ccc(NS(C)(=O)=O)cc3)cs2)ccn1	0.13 µg/mL
NNC(=O)c1ccncc1	0.06 µg/mL
CCCc1cc(-c2nc(-c3ccc(OCCN4CCOCC4)cc3)cs2)ccn1	0.5 µg/mL
CCCc1cc(-c2nc(-c3ccc(OCC4CC4)cc3)cs2)ccn1	0.25 µg/mL
CCCc1cc(-c2nc(-c3cccc(OC)c3)cs2)ccn1	0.13 µg/mL

Form field MIC80, entry `CO[C@H]1/C=C/O[C@@]2(C)Oc3c(C)c(O)c4c(O)c(c(/C=N/N5CCN(C)CC5)c(O)c4c3C2=O)NC(=O)/C(C)=C\C=C\[C@H](C)[C@H](O)[C@@H](C)[C@@H](O)[C@@H](C)[C@H](OC(C)=O)[C@@H]1C` : 0.003 µg/mL
